test system: TGFβ signal; experiment: TGFβ signal inhibitory activity, (SBE)4-Luc reporter in A549 cells (Test Examples 1A and 1B); type: cell-based, human; conditions: Homo sapiens, A549; test compound 3 µM; Reference Examples, Table 1B; read-out: TGFβ inhibition rate, %
MEASURED_ATTRIBUTE: inhibition at 3 µM (%)
Quick reminder: number only, in %, skip the unit.

# value of inhibition at 3 µM, TGFβ signal, item COc1cc2nccc(Oc3ccccc3C(=O)OC(C)C)c2cc1OC = 44

# lookup: COc1cc2ncnc(Oc3ccc(C)cc3C(=O)c3ccccc3)c2cc1OC on TGFβ signal, inhibition at 3 µM = 25

# COc1cc2nccc(Oc3ccccc3C(=O)Nc3ccccc3)c2cc1OC with TGFβ signal: inhibition at 3 µM is 0

Lab note: compound CC/C=C\CCOC(=O)c1ccccc1Oc1ccnc2cc(OC)c(OC)cc12 tested on TGFβ signal; recorded inhibition at 3 µM was 0

With TGFβ signal as the test system, CCOC(=O)c1ccccc1C(=O)c1ccnc2cc(OC)c(OC)cc12 showed inhibition at 3 µM of 3

Bench note, TGFβ signal: COc1cc2nccc(Oc3ccccc3C(=O)OCc3ccccc3)c2cc1OC , inhibition at 3 µM reads 20

For COc1ccc(Oc2ccnc3cc(OC)c(OC)cc23)c(C(=O)NC2CCCCC2)c1 on TGFβ signal, measured inhibition at 3 µM was 44

Reported inhibition at 3 µM (TGFβ signal) for entry COc1ccc(Oc2ccnc3cc(OC)c(OC)cc23)c(C(=O)c2ccccc2)c1 is 27

Log: TGFβ signal, compound CCCOC(=O)c1cc(-c2ccc(F)cc2F)ccc1Oc1ccnc2cc(OC)c(OC)cc12 , inhibition at 3 µM = 19

The value of inhibition at 3 µM recorded for CCN(CC)CCCOc1cc2nccc(Oc3ccc(C)cc3C(=O)c3ccccc3)c2cc1OC when tested on TGFβ signal reads 100

Record COc1cc2nccc(Oc3c(Br)cc(Br)cc3C(=O)Nc3ccc(Br)cc3)c2cc1OC has TGFβ signal inhibition at 3 µM equal to 0

Entry COc1cc2nccc(Oc3cc4ccccc4cc3C(=O)Oc3ccccc3)c2cc1OC ; assay system TGFβ signal; inhibition at 3 µM recorded at 33

Per the reported TGFβ signal data, COc1cc2nccc(Oc3ccc(Br)cc3C(=O)Nc3ccc(Cl)cc3)c2cc1OC has inhibition at 3 µM of 0

With TGFβ signal as the test system, COc1cc2nccc(Oc3ccc4c(c3)COC(=O)N4)c2cc1OC showed inhibition at 3 µM of 56

Case COc1cc2nccc(Oc3ccccc3C(=O)OCC(C)C)c2cc1OC , TGFβ signal, inhibition at 3 µM recorded as 14

Form: item COc1cc2c(Oc3ccc(C)cc3C(=O)c3ccccc3)ccnc2cc1OCCCCl ; test system TGFβ signal; inhibition at 3 µM: 72

Form field, inhibition at 3 µM with TGFβ signal, item COc1cc2c(Oc3ccc(C)cc3C(=O)c3ccccc3)ccnc2cc1OCC(O)CNCCO (stereo not shown) : 99

Entry COc1cc2nccc(Oc3ccc4ccccc4c3C=O)c2cc1OC , TGFβ signal data, inhibition at 3 µM value: 0

TGFβ signal inhibition at 3 µM of CCOC(=O)c1ccc(Cl)cc1Oc1ccnc2cc(OC)c(OC)cc12 is 91
